// provenance: patent US20240067747A1

Would you kindly list log10 koff for each of these binders?
- assayed-target: T1, Cynomolgus CD73 protein (Novoprotein, item No. CI21) (cynomolgus, UniProt A0A2K5V5U7 27-547)
- T1 construct: Bought protein
- T1 sequence: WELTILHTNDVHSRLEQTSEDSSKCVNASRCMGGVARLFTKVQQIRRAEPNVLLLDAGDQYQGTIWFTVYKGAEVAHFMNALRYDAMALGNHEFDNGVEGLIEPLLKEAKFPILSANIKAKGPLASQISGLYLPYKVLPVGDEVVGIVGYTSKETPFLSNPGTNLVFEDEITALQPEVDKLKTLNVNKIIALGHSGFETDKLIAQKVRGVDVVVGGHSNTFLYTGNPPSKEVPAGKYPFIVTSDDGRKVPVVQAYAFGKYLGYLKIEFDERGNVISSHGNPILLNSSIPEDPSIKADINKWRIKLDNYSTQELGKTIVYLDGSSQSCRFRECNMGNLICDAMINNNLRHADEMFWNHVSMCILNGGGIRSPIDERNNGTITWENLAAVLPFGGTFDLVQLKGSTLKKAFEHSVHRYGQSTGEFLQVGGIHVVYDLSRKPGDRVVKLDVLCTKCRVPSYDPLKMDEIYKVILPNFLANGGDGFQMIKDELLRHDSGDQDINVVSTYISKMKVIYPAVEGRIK
- method-summary: SPR, Biacore T200, antibody captured on protein A chip, cynomolgus CD73 as analyte, 1:1 model
Please note: log10 values; quantity koff; unit s⁻¹.

900725 (humanized anti-CD73 antigen-binding protein) (antibody, V domains shown) VH: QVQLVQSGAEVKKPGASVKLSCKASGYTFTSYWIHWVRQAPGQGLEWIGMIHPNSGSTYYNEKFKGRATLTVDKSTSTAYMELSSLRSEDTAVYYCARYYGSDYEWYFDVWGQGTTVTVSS VL: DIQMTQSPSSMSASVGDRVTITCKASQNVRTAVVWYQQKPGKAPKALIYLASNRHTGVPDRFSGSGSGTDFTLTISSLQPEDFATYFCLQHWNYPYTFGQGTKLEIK | -3.81
900726 (humanized anti-CD73 antigen-binding protein) (antibody, V domains shown) VH: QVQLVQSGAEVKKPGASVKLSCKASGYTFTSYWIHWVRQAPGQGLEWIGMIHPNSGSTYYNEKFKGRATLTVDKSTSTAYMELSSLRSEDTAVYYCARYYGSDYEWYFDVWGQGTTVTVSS VL: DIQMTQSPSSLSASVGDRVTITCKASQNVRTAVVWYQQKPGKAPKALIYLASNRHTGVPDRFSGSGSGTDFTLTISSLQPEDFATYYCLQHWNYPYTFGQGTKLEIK | -2.49
900727 (humanized anti-CD73 antigen-binding protein) (antibody, V domains shown) VH: QVQLVQSGAEVKKPGASVKVSCKASGYTFTSYWIHWVRQAPGQGLEWIGMIHPNSGSTYYAQKFQGRVTITVDKSTSTAYMELSSLRSEDTAVYYCARYYGSDYEWYFDVWGQGTTVTVSS VL: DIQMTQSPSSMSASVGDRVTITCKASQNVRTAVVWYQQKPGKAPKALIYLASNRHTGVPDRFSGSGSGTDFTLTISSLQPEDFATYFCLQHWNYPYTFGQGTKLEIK | -3.13
900567 (human-mouse chimeric anti-CD73 antigen-binding protein expressed from 124A9 variable regions) (antibody, V domains shown) VH: QVQLQQPGAELVKPGASVKLSCKASGYTFTSYWIHWVKQRPGQGLDWIGMIHPNSGSTYYNEKFKSKATLTVDKSSSTAYMQLSSLTSEDSAVYYCARYYGSDYEWYFDVWGTGTTVTVSS VL: DIVMTQSQKFMSTSVGDRVSITCKASQNVRTAVVWYQQNPGQSPKALIYLASNRHTGVPDRFTGSGSGTDFTLTISNVHSEDLADYFCLQHWNYPYTFGGGTKLEIK | -3.22

Q: Could you share which log10 koff value was measured for 900728 (humanized anti-CD73 antigen-binding protein) (antibody, V domains shown) VH: QVQLVQSGAEVKKPGASVKVSCKASGYTFTSYWIHWVRQAPGQGLEWIGMIHPNSGSTYYNEKFQGRVTMTVDKSTSTAYMELSSLRSEDTAVYYCARYYGSDYEWYFDVWGQGTTVTVSS VL: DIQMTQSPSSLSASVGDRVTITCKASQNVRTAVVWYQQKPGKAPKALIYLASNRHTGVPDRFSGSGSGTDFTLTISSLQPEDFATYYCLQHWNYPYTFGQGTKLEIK ?
Result: -3.42
